Attribution: ChEMBL document CHEMBL4808165

experiment: Clearance in Sprague-Dawley rat at 5 mg/kg, po or 0.5 mg/kg, iv measured up to 24 hrs by HPLC-MS/MS analysis; assay type: ADME, organism-based; settings: in vivo
Positions of bridges follow the written chain, without caps; N, C: chain ends. Non-standard residues stand in square brackets, D forms with d. Residues, ends and D or L forms follow the SMILES beside them. NMeNle = CCCC[C@H](NC)C(=O)O; Nle = CCCC[C@H](N)C(=O)O
measure: clearance (mL/min/kg)

In the examples that follow, each entry is paired with its recorded clearance.
| compound | display unit | value measured |
| --- | --- | --- |
| CCCC[C@@H]1NC(=O)[C@H](CCCC)NC(=O)[C@H]2CCCN2C(=O)[C@H](CCCC)NC(=O)[C@H](Cc2ccccc2)NC(=O)CSC[C@H](C(=O)NC)NC(=O)[C@H](CCCC)NC1=O | mL/min/kg | 72 |
| CCCC[C@@H]1NC(=O)[C@H](CCCC)N(C)C(=O)[C@H](CCCC)NC(=O)[C@H](Cc2ccccc2)N(C)C(=O)[C@H]([C@@H](C)O)NC(=O)[C@H](CCCC)N(C)C(=O)[C@@H](Cc2ccccc2)NC(=O)CSC[C@@H](C(=O)NC)NC1=O | mL/min/kg | 28.4 |
| CCCC[C@@H]1NC(=O)[C@H](CCCC)N(C)C(=O)[C@@H]2CCCN2C(=O)[C@H](CCCC)N(C)C(=O)[C@H](Cc2ccccc2)NC(=O)CSC[C@@H](C(=O)NC)NC(=O)[C@H](CCCC)N(C)C1=O ({CH2CO}-F[NMeNle]P[NMeNle][Nle][NMeNle]C-NHMe; thioether N-7) | mL/min/kg | 35 |

P. CCCC[C@@H]1NC(=O)[C@H](CCCC)N(C)C(=O)[C@H](CCCC)NC(=O)[C@H](CCCC)N(C)C(=O)[C@H](CCCC)NC(=O)[C@H](CCCC)N(C)C(=O)[C@@H](Cc2ccccc2)NC(=O)CSC[C@@H](C(=O)NC)NC1=O
Q. CCCC[C@@H]1NC(=O)[C@H](Cc2ccccc2)N(C)C(=O)CSC[C@H](C(=O)NC)N(C)C(=O)[C@H](CCCC)NC(=O)[C@H](CCCC)N(C)C(=O)[C@H](CCCC)NC1=O
Which of the two gives a bigger number for clearance: P or Q ? Pick one and reply with its label.
Q

###

assay: Apparent permeability across apical to basolateral membrane in MDCKII-LE cells measured after 120 mins by RapidFire-MS analysis; assay type: ADME, cell-based, Canis lupus familiaris; settings: dog, MDCK
Positions of bridges follow the written chain, without caps; N, C: chain ends. Non-standard residues stand in square brackets, D forms with d. Residues, ends and D or L forms follow the SMILES beside them. NMeNle = CCCC[C@H](NC)C(=O)O; Nle = CCCC[C@H](N)C(=O)O
A collection of compounds and their measured Papp A→B at 2 h

Take a look at these entries with their results.
| compound | Papp A→B at 2 h |
| --- | --- |
| CCCC[C@@H]1NC(=O)[C@H](CCCC)N(C)C(=O)[C@H](CCCC)NC(=O)[C@H](Cc2ccccc2)N(C)C(=O)[C@H]([C@@H](C)O)NC(=O)[C@H](CCCC)N(C)C(=O)[C@@H](Cc2ccccc2)NC(=O)CSC[C@@H](C(=O)NC)NC1=O | < 0.35 ×10⁻⁶ cm/s |
| CCCC[C@@H]1NC(=O)[C@H](CCCC)N(C)C(=O)[C@H](CCCC)NC(=O)[C@H](CCCC)N(C)C(=O)[C@H](CCCC)NC(=O)[C@H](CCCC)N(C)C(=O)[C@@H](Cc2ccccc2)NC(=O)CSC[C@@H](C(=O)NC)NC1=O | < 0.35 ×10⁻⁶ cm/s |

Here is the next item to consider.
Report Papp A→B at 2 h for CCCC[C@@H]1NC(=O)[C@H](Cc2ccccc2)NC(=O)CSC[C@@H](C(=O)NC)NC(=O)[C@H](CCCC)N(C)C(=O)[C@H](CCCC)N(C)C(=O)[C@H](CCCC)N(C)C(=O)[C@H](CCCC)NC(=O)[C@H](CCCC)N(C)C1=O ({CH2CO}-F[Nle][NMeNle][Nle][NMeNle][NMeNle][NMeNle]C-NHMe; thioether N-8) please.
< 0.35 ×10⁻⁶ cm/s
